target_system: PRKAA1 (human) (UniProt Q13131)
Sequence (Q13131 whole entry, looked up): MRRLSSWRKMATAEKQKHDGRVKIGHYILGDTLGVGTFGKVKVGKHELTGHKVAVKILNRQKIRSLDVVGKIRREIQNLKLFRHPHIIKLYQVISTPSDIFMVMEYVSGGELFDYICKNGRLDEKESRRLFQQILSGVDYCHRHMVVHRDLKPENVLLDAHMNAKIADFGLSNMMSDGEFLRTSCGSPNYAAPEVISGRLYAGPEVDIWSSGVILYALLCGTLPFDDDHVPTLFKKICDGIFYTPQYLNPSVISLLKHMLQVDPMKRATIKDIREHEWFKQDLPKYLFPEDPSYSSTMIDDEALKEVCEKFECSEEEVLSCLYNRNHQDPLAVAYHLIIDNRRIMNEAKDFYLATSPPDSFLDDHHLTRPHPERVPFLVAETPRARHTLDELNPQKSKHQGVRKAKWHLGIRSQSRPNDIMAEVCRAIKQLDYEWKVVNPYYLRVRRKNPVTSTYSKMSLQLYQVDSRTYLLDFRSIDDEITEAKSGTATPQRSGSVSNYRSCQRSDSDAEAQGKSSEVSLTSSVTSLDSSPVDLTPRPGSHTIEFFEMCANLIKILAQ
test_name: KINOMEscan competition binding
experimental_context: compound 10.0 µM
measure: kinase still bound, per cent of control (%)
// units = %; emit number, no label

compound	units_of_measure	observed
N#Cc1c(NC(=O)c2cccc3ccccc23)sc2c1CCCC2	%	80

Return reported kinase still bound, per cent of control; argument: `COc1cc(C(=O)NC2CCN(C)CC2)ccc1Nc1ncc2c(n1)N(C1CCCC1)CCC(=O)N2C(C)C` 100

Now the same for `C[C@@H](Oc1cc(-n2cnc3ccc(CN4CCN(C)CC4)cc32)sc1C(N)=O)c1ccccc1C(F)(F)F` 57

// same read-out, input: `C=CC(=O)Nc1cccc(Oc2nc(Nc3ccc(N4CCN(C)CC4)cc3OC)ncc2Cl)c1` 28

Now consider `OCCCNc1cc(-c2ccnc(Nc3cccc(Cl)c3)n2)ccn1` . 100
